Procedure text: Part A: PK of single-dose fruquintinib alone and with itraconazole (CYP3A inhibition)
Type: in vivo, human
Protocol conditions: both sexes, human, plasma, oral, 5 mg, metabolite M11 in plasma; Part A, fruquintinib alone 5 mg; arithmetic mean (SD), n = 14; read-out: AUC0‐t
Experimental endpoint: AUC (ng·h/mL)
Answer format: numeric, ng·h/mL implied, no suffix.

-- ask Give reported AUC value for COc1cc2ncnc(Oc3ccc4c(C(N)=O)c(C)oc4c3)c2cc1OC
-- reply 1580

###

Procedure text: Part A: PK of single-dose fruquintinib alone and with itraconazole (CYP3A inhibition)
Assay type: in vivo, human
Protocol conditions: both sexes, human, plasma, oral, 5 mg, fruquintinib in plasma; Part A, fruquintinib alone 5 mg; arithmetic mean (SD), n = 14
Experimental endpoint: half-life

-- ask Give reported half-life value for CNC(=O)c1c(C)oc2cc(Oc3ncnc4cc(OC)c(OC)cc34)ccc12
-- reply ~34 h

###

Procedure text: Part A: PK of single-dose fruquintinib alone and with itraconazole (CYP3A inhibition)
Type: in vivo, human
Protocol conditions: both sexes, human, oral; fruquintinib in plasma; Part A, fruquintinib 5 mg + itraconazole 200 mg; median (minimum‐maximum), n = 14
Experimental endpoint: Tmax (h)
Answer format: numeric, h implied, no suffix.

-- ask Give reported Tmax value for CNC(=O)c1c(C)oc2cc(Oc3ncnc4cc(OC)c(OC)cc34)ccc12
-- reply 4

###

Procedure text: Part A: PK of single-dose fruquintinib alone and with itraconazole (CYP3A inhibition)
Assay type: in vivo, human
Protocol conditions: both sexes, human, plasma, oral, metabolite M11 in plasma; Part A, fruquintinib 5 mg + itraconazole 200 mg; arithmetic mean (SD), n = 14; read-out: AUC0‐t
Experimental endpoint: AUC (ng·h/mL)
Answer format: numeric, ng·h/mL implied, no suffix.

-- ask Give reported AUC value for COc1cc2ncnc(Oc3ccc4c(C(N)=O)c(C)oc4c3)c2cc1OC
-- reply 816

###

Procedure text: Part A: PK of single-dose fruquintinib alone and with itraconazole (CYP3A inhibition)
Assay type: in vivo, human
Protocol conditions: both sexes, human, plasma, oral, 5 mg, metabolite M11 in plasma; Part A, fruquintinib alone 5 mg; arithmetic mean (SD), n = 12
Experimental endpoint: half-life
I'd appreciate it if you wrote the number followed by its unit.

-- ask Give reported half-life value for COc1cc2ncnc(Oc3ccc4c(C(N)=O)c(C)oc4c3)c2cc1OC
-- reply 58.6 h

###

Procedure text: Part A: PK of single-dose fruquintinib alone and with itraconazole (CYP3A inhibition)
Type: in vivo, human
Protocol conditions: both sexes, human, oral; metabolite M11 in plasma; Part A, fruquintinib alone 5 mg; median (minimum‐maximum), n = 14
Experimental endpoint: Tmax (h)
Answer format: numeric, h implied, no suffix.

-- ask Give reported Tmax value for COc1cc2ncnc(Oc3ccc4c(C(N)=O)c(C)oc4c3)c2cc1OC [M11]
-- reply 72

###

Procedure text: Part A: PK of single-dose fruquintinib alone and with itraconazole (CYP3A inhibition)
Type: in vivo, human
Protocol conditions: both sexes, human, oral; fruquintinib in plasma; Part A, fruquintinib alone 5 mg; arithmetic mean (SD), n = 14
Excerpt: This was a single‐center, open‐label, 2‐part (Part A and Part B), 2‐period, fixed‐sequence study conducted in healthy male and female subjects. Parts A and B evaluated the effect of the CYP3A inhibitor itraconazole and the CYP3A inducer rifampin on the PK profile of fruquintinib, respectively. Each part consisted of a screening phase, a treatment phase (Period 1 and Period 2), and an end‐of‐study (EOS) phase. Screening occurred within 21 days before the first study drug administration. […]
Experimental endpoint: AUC(0-t)
I'd appreciate it if you wrote the number followed by its unit.

-- ask Give reported AUC(0-t) value for CNC(=O)c1c(C)oc2cc(Oc3ncnc4cc(OC)c(OC)cc34)ccc12 [Fruquintinib]
-- reply 5730 ng·h/mL

###

Procedure text: Part A: PK of single-dose fruquintinib alone and with itraconazole (CYP3A inhibition)
Assay type: in vivo, human
Protocol conditions: both sexes, human, plasma, oral, 5 mg, metabolite M11 in plasma; Part A, fruquintinib alone 5 mg; arithmetic mean (SD), n = 12; read-out: AUC0‐inf
Experimental endpoint: AUC (ng·h/mL)
Answer format: numeric, ng·h/mL implied, no suffix.

-- ask Give reported AUC value for COc1cc2ncnc(Oc3ccc4c(C(N)=O)c(C)oc4c3)c2cc1OC
-- reply 2000

###

Procedure text: Part B: PK of single-dose fruquintinib alone and with rifampin (CYP3A induction)
Assay type: in vivo, human
Protocol conditions: both sexes, human, oral; fruquintinib in plasma; Part B, fruquintinib 5 mg + rifampin 600 mg; arithmetic mean (SD), n = 13; read-out: Cmax
Experimental endpoint: Cmax (ng/mL)
Answer format: numeric, ng/mL implied, no suffix.

-- ask Give reported Cmax value for CNC(=O)c1c(C)oc2cc(Oc3ncnc4cc(OC)c(OC)cc34)ccc12
-- reply 108

###

Procedure text: Part B: PK of single-dose fruquintinib alone and with rifampin (CYP3A induction)
Assay type: in vivo, human
Protocol conditions: both sexes, human, plasma, oral, 5 mg, fruquintinib in plasma; Part B, fruquintinib alone 5 mg; median (minimum‐maximum), n = 14; read-out: tmax
Experimental endpoint: Tmax (h)
Answer format: numeric, h implied, no suffix.

-- ask Give reported Tmax value for CNC(=O)c1c(C)oc2cc(Oc3ncnc4cc(OC)c(OC)cc34)ccc12
-- reply 3.33

###

Procedure text: Part A: PK of single-dose fruquintinib alone and with itraconazole (CYP3A inhibition)
Format: in vivo, human
Protocol conditions: both sexes, human, oral; fruquintinib in plasma; Part A, fruquintinib alone, single 5 mg by mouth, fasted; arithmetic mean (SD), n = 14; read-out: Cmax
Experimental endpoint: Cmax

-- ask Give reported Cmax value for CNC(=O)c1c(C)oc2cc(Oc3ncnc4cc(OC)c(OC)cc34)ccc12
-- reply 133 ng/mL

###

Procedure text: Part B: PK of single-dose fruquintinib alone and with rifampin (CYP3A induction)
Assay type: in vivo, human
Protocol conditions: both sexes, human, plasma, oral, 5 mg, metabolite M11 in plasma; Part B, fruquintinib alone 5 mg; arithmetic mean (SD), n = 13
Experimental endpoint: half-life

-- ask Give reported half-life value for COc1cc2ncnc(Oc3ccc4c(C(N)=O)c(C)oc4c3)c2cc1OC
-- reply 2.99 days

###

Procedure text: Part B: PK of single-dose fruquintinib alone and with rifampin (CYP3A induction)
Type: in vivo, human
Protocol conditions: both sexes, human, plasma, oral, metabolite M11 in plasma; Part B, fruquintinib 5 mg + rifampin 600 mg; median (minimum‐maximum), n = 13; read-out: tmax
Excerpt: This was a single‐center, open‐label, 2‐part (Part A and Part B), 2‐period, fixed‐sequence study conducted in healthy male and female subjects. Parts A and B evaluated the effect of the CYP3A inhibitor itraconazole and the CYP3A inducer rifampin on the PK profile of fruquintinib, respectively. Each part consisted of a screening phase, a treatment phase (Period 1 and Period 2), and an end‐of‐study (EOS) phase. Screening occurred within 21 days before the first study drug administration. […]
Experimental endpoint: Tmax (h)
Answer format: numeric, h implied, no suffix.

-- ask Give reported Tmax value for COc1cc2ncnc(Oc3ccc4c(C(N)=O)c(C)oc4c3)c2cc1OC
-- reply 23

###

Procedure text: Part B: PK of single-dose fruquintinib alone and with rifampin (CYP3A induction)
Type: in vivo, human
Protocol conditions: both sexes, human, plasma, oral, fruquintinib in plasma; Part B, fruquintinib 5 mg + rifampin 600 mg; arithmetic mean (SD), n = 13
Experimental endpoint: half-life

-- ask Give reported half-life value for CNC(=O)c1c(C)oc2cc(Oc3ncnc4cc(OC)c(OC)cc34)ccc12
-- reply ~14 h

###

Procedure text: Part A: PK of single-dose fruquintinib alone and with itraconazole (CYP3A inhibition)
Assay type: in vivo, human
Protocol conditions: both sexes, human, oral; fruquintinib in plasma; Part A, fruquintinib alone 5 mg; median (minimum‐maximum), n = 14
Experimental endpoint: Tmax (h)
Answer format: numeric, h implied, no suffix.

-- ask Give reported Tmax value for CNC(=O)c1c(C)oc2cc(Oc3ncnc4cc(OC)c(OC)cc34)ccc12
-- reply 2

###

Procedure text: Part B: PK of single-dose fruquintinib alone and with rifampin (CYP3A induction)
Type: in vivo, human
Protocol conditions: both sexes, human, plasma, oral, 5 mg, fruquintinib in plasma; Part B, fruquintinib alone 5 mg; arithmetic mean (SD), n = 13
Experimental endpoint: half-life

-- ask Give reported half-life value for CNC(=O)c1c(C)oc2cc(Oc3ncnc4cc(OC)c(OC)cc34)ccc12 [Fruquintinib]
-- reply ~34 h

###

Procedure text: Part B: PK of single-dose fruquintinib alone and with rifampin (CYP3A induction)
Assay type: in vivo, human
Protocol conditions: both sexes, human, oral; fruquintinib in plasma; Part B, fruquintinib 5 mg + rifampin 600 mg; arithmetic mean (SD), n = 13
Experimental endpoint: AUC(0-inf)
I'd appreciate it if you wrote the number followed by its unit.

-- ask Give reported AUC(0-inf) value for CNC(=O)c1c(C)oc2cc(Oc3ncnc4cc(OC)c(OC)cc34)ccc12 [Fruquintinib]
-- reply 2070 ng·h/mL

###

Procedure text: Part B: PK of single-dose fruquintinib alone and with rifampin (CYP3A induction)
Format: in vivo, human
Protocol conditions: both sexes, human, plasma, oral, 5 mg, metabolite M11 in plasma; Part B, fruquintinib alone 5 mg; median (minimum‐maximum), n = 14; read-out: tmax
Experimental endpoint: Tmax (h)
Answer format: numeric, h implied, no suffix.

-- ask Give reported Tmax value for COc1cc2ncnc(Oc3ccc4c(C(N)=O)c(C)oc4c3)c2cc1OC
-- reply 48
